experimental system: Glypican-3 (GPC3) (UniProt P51654;P51654 P51654:25-358,P51654:359-554)
assay info: flow; GPC3+ HEK293 cells
applied conditions: tags: overexpressed in engineered HEK293 cells (GPC3+ HEK293); stem 2 replaced with alternative stem and loop
assay metric: Kd (µM)
State the answer as a number, implicitly in µM.

Input: Identify Kd associated with the binder GRX958 (ssRNA, fully 2'-OMe) RNA: GACUAGAUCGGGUUGCUACCCAAGCUCCGGUUCAGAUCGAUGGAGGAUCUAGUC
Output: 0.0331
